Value source: patent US20090130676A1

# target_system: T1, Cdk4 (Homo sapiens (Human), UniProt P11802 2-303)
# T1 construct: construct not described
# T1 sequence (P11802 2-303 limits assumed): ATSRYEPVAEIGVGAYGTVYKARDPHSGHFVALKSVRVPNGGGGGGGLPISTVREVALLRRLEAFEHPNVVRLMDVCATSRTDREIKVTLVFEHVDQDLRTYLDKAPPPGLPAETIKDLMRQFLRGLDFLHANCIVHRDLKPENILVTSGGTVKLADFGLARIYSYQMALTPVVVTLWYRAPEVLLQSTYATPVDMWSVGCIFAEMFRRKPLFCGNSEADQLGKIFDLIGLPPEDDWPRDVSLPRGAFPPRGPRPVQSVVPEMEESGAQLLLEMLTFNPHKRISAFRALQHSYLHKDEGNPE
# assay_protocol: yeast interaction trap mating assay (FIG. 4A)
outcome_measure: binding result

Recorded results for 5 binders are shown here.
>>> result("pep14 (FIG. 4B numbering), thioredoxin prey fusion (designed binder, not shown: large carriers) MSDKIIHLTDDSFDTDVLKADGAILVDFWAEWCGPWSPELLRAMVAFRWLLERRPGPCKMIAPILDEIADEYQGKLTVAKLNIDQNPGTAPKYGIRGIPTLLLFKNGEVAATKVGALSKGQLKEFLDANLA")
"no binding"
>>> result("pep13 (FIG. 4B numbering), thioredoxin prey fusion (designed binder, not shown: large carriers) MSDKIIHLTDDSFDTDVLKADGAILVDFWAEWCGPPVCCMMYGHRTAPHSVFNVDGPCKMIAPILDEIADEYQGKLTVAKLNIDQNPGTAPKYGIRGIPTLLLFKNGEVAATKVGALSKGQLKEFLDANLA")
"no binding"
>>> result("pep6 (FIG. 4B numbering), thioredoxin prey fusion (designed binder, not shown: large carriers) MSDKIIHLTDDSFDTDVLKADGAILVDFWAEWCGPRVKLGYSFWAQSLLRCISVGGPCKMIAPILDEIADEYQGKLTVAKLNIDQNPGTAPKYGIRGIPTLLLFKNGEVAATKVGALSKGQLKEFLDANLA")
"no binding"
>>> result("pep7 (FIG. 4B numbering), thioredoxin prey fusion (designed binder, not shown: large carriers) MSDKIIHLTDDSFDTDVLKADGAILVDFWAEWCGPQLYAGCYLGVVIASSLSIRVGPCKMIAPILDEIADEYQGKLTVAKLNIDQNPGTAPKYGIRGIPTLLLFKNGEVAATKVGALSKGQLKEFLDANLA")
"no binding"
>>> result("pep9 (FIG. 4B numbering), thioredoxin prey fusion (designed binder, not shown: large carriers) MSDKIIHLTDDSFDTDVLKADGAILVDFWAEWCGPQQRFVFSPSWFTCAGTSDFWGPEPLFDWTRDGPCKMIAPILDEIADEYQGKLTVAKLNIDQNPGTAPKYGIRGIPTLLLFKNGEVAATKVGALSKGQLKEFLDANLA")
"no binding"

# input for lookup
Task: Item pep12 (FIG. 4B numbering), thioredoxin prey fusion (designed binder, not shown: large carriers) MSDKIIHLTDDSFDTDVLKADGAILVDFWAEWCGPRPLTGRWVVWGRRHEECGLTGPCKMIAPILDEIADEYQGKLTVAKLNIDQNPGTAPKYGIRGIPTLLLFKNGEVAATKVGALSKGQLKEFLDANLA has what recorded binding result?
Result: no binding
